- experimentalTarget: Follistatin (Homo sapiens) (UniProt P19883)
- Sequence (P19883 whole entry, looked up): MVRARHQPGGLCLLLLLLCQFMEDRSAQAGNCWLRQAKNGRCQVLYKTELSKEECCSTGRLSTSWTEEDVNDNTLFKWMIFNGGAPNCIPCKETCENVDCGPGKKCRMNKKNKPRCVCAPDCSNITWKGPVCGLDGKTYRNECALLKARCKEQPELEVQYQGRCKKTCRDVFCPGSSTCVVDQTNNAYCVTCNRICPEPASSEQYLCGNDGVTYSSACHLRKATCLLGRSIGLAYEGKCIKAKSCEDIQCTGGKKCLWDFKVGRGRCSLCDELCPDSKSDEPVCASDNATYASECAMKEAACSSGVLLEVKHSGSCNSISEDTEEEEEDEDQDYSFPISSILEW
- assayInfo: follistatin binders on small-molecule microarrays, primary screen, biochemical, small-molecule microarray, 635/667 nm fluorescence (AID 1132)
- runParameters: FST binding, 635 nm fluorescence, higher = more signal
measurementName: composite z-score
Note: the reply should be a number with no unit written.

Q. Give the reported composite z-score for COC(=O)C(CC#Cc1ccc2c(c1)[C@]1(C(=O)N2)[C@H](C(=O)O)[C@H]2C(=O)O[C@H](c3ccccc3)[C@H](c3ccccc3)N2[C@@H]1c1ccc(O)cc1)C(=O)OC (system: Follistatin (Homo sapiens) (UniProt P19883)).
A. -0.0501

Q. Another: CCCC[C@H]1OB(O)C[C@H]2C1=C(COc1ccccc1)C[C@H]1C(=O)N(C)C(=O)[C@H]12
A. 1.24

Q. Another: C[C@]1(C(=O)NC2CC2)c2ccccc2C(=O)N(Cc2cc(C(F)(F)F)cc(C(F)(F)F)c2)[C@H]1c1ccc(CO)cc1
A. 1.31

Q. Another: CN(C)C(=O)[C@]1(Cc2ccccc2N=[N+]=[N-])N=C(c2ccc(OCCCO)cc2)O[C@@H]1c1ccccc1
A. 1.31

---

- experimentalTarget: Focal adhesion kinase 1 (Homo sapiens) (UniProt Q05397)
- Sequence (Q05397 whole entry, looked up): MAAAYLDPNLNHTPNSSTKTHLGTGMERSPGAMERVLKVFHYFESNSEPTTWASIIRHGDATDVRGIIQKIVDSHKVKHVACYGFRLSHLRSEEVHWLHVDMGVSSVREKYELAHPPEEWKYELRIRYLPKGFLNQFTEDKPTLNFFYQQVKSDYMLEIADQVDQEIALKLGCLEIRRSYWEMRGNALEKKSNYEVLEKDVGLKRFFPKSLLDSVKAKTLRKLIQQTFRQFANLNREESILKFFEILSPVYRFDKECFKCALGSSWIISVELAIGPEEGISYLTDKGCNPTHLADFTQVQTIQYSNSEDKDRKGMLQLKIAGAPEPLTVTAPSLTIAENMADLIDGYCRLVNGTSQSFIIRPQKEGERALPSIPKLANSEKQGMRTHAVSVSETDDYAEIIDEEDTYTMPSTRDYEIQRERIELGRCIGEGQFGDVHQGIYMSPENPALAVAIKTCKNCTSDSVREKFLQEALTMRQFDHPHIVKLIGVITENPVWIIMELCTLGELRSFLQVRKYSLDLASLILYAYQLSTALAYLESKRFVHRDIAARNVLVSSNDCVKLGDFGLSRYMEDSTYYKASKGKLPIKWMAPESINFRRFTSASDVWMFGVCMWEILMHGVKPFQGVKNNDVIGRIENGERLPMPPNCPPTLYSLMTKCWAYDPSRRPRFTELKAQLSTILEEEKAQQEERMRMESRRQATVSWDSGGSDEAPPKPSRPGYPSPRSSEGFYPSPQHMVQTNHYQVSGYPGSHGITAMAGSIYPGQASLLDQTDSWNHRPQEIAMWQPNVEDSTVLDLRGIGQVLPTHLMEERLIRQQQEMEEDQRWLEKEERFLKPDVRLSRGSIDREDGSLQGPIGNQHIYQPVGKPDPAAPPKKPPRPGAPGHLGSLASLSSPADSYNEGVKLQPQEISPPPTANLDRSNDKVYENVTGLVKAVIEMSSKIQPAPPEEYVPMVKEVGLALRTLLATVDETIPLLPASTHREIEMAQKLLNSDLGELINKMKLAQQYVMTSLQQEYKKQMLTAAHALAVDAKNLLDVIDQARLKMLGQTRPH
- assayInfo: small-molecule microarray binders of FAK, primary screen, biochemical, 635/667 nm fluorescence, BSA, DTT (AID 1130);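 also: composite of spot emission at 667 nm and signal to noise over triplicate slides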
- runParameters: PTK2 binding, 635 nm fluorescence, higher = more signal
measurementName: composite z-score

Below, each entry is followed by its recorded composite z-score result.
COC(=O)[C@@]1(Cc2ccc(F)cc2)[C@H]2c3cc(C(=O)N4CCCC4)n(Cc4cc(C)n(C)n4)c3C[C@H]2CN1C(=O)c1ccccc1 :: 1.03
[N-]=[N+]=NCc1ccccc1[C@@H]1OC(c2ccc(OCCCO)cc2)=N[C@]1(CCS(=O)(=O)c1ccccc1)C(=O)NCc1ccccc1 :: 0.878

Q. Entry COC(=O)[C@@]1(Cc2ccc(OC)cc2)[C@H]2c3cc(C(=O)N(C)C)n(Cc4cccc5ccccc45)c3C[C@H]2CN1C(=O)c1ccccc1 : reported composite z-score = ?
A. 0.306

Q. Another: CCCCN1CC=CC23O[C@@H]4/C=C\CCC(C)OC(=O)C4[C@H]2C(=O)N(CCCCCO)[C@@H]3C1=O (stereo partly specified)
A. -0.883

Q. Another: COCCOC(=O)N1C(=O)[C@@]2(c3cc(C#CCNC(N)=O)ccc31)[C@H](C(=O)NC[C@H](O)c1ccccc1)[C@H]1C(=O)O[C@H](c3ccccc3)[C@H](c3ccccc3)N1[C@@H]2c1ccccc1OCCO
A. 0.564

Q. Another: N#Cc1ccc(NN2C(C(O)c3c(F)cccc3Cl)C=CC3C(=O)N(c4ccccc4)C(=O)C32)cc1 (stereo unspecified)
A. 0.377

---

- assayInfo: fission yeast growth modulation, primary screen, strain 972, OD600, 24 h, no modulator (AID 1090);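 also: basal condition with compound alone and no growth modifier present; test concentration not given here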
- runParameters: S. pombe 972 growth, higher = more signal, called active from +8 up or from −8 down
measurementName: z-score
Note: the reply should be a number with no unit written.

COC(=O)[C@@]1(Cc2ccc(F)cc2)[C@H]2c3cc(C(=O)N4CCCC4)n(Cc4ccc(C)o4)c3C[C@H]2CN1C(=O)c1ccccc1 :: -0.0545
COC(=O)[C@@]1(Cc2ccc(OC)cc2)[C@H]2c3cc(C(=O)N(C)C)n(Cc4cccc5ccccc45)c3C[C@H]2CN1C(=O)c1ccccc1 :: 0.514
O=C1O[C@@H](c2ccccc2)[C@@H](c2ccccc2)N2[C@@H](c3ccc(OCCO)cc3)[C@]3(C(=O)Nc4ccccc43)[C@@H](C(=O)NC[C@H](O)c3ccccc3)[C@H]12 :: 1.59
CC1(C)[C@@H]2CC(C(O)C3C=CC4C(=O)N(c5ccccc5)C(=O)C4N3Nc3ccccc3)=C[C@H]1C2 (some centres not stated) :: 0.286
COc1ccc(NN2C(C(O)c3ccc([N+](=O)[O-])cc3)C=CC3C(=O)N(C4CCCCC4)C(=O)C32)cc1 (configuration not stated) :: 0.811
C=CC[C@@]1(C(=O)N(C)C)N=C(c2ccc(OCCCO)cc2)O[C@@H]1c1ccccc1N=[N+]=[N-] :: -0.0481

Q. Entry COCCCNC(=O)[C@@]1(Cc2ccccc2)N=C(c2ccc(OCCCO)cc2)O[C@H]1c1ccccc1 : reported z-score = ?
A. -0.475
